Overview of recorded Na for various compounds
Species: Rattus norvegicus
Test: Open TG-GATES - Regimen: Single
Type: toxicity, organism-based, Sprague-Dawley
Parameters: regimen Single, gender Male, age 6 weeks
Details: in vivo, po, 0 mg/kg, 6 h, tissue Plasma, route gavage, dose level Control
Reported endpoint: Na (meq/L)

>>> number("Nc1nc(N)c2nc(-c3ccccc3)c(N)nc2n1")
142.8
>>> number("CN1C(=O)OC(C)(C)C1=O [TRIMETHADIONE]")
140.6
>>> number("CC(C)(S)[C@@H](N)C(=O)O [PENICILLAMINE]")
142.8
>>> number("CCc1oc2ccccc2c1C(=O)c1cc(I)c(O)c(I)c1 [BENZIODARONE]")
141.4
>>> number("CCSCC[C@H](N)C(=O)O [ETHIONINE]")
140.6

---

Let's look at some molecules and their measured ALT.
Species: Rattus norvegicus
Assay: Open TG-GATES - Regimen: Daily Repeat
Format: toxicity, organism-based, Sprague-Dawley
Parameters: regimen Daily Repeat, gender Male, age 6 weeks
Settings: in vivo, po, 0 mg/kg, […], tissue Plasma, route gavage, dose level Control, time 28 day
Reported endpoint: ALT (IU/L)

>>> number("O=C(N[C@H](CO)[C@H](O)c1ccc([N+](=O)[O-])cc1)C(Cl)Cl")
36.4
>>> number("CC(=N)S [THIOACETAMIDE]")
29.4
>>> number("C#C[C@]1(O)CC[C@H]2[C@@H]3CCc4cc(O)ccc4[C@H]3CC[C@@]21C")
39.4
>>> number("CN1C(=O)OC(C)(C)C1=O")
35

---

Reported WBC values for a set of molecules
Organism: Rattus norvegicus
Assay: Open TG-GATES - Regimen: Daily Repeat
Type: toxicity, organism-based, Sprague-Dawley
Set-up: regimen Daily Repeat, gender Male, age 6 weeks
Conditions: in vivo, po, 0 mg/kg, […], tissue Blood, route gavage, dose level Control, time 28 day
Reported endpoint: WBC (x10_2/uL)

>>> number("C#C[C@]1(O)CC[C@H]2[C@@H]3CCc4cc(O)ccc4[C@H]3CC[C@@]21C [ETHINYL ESTRADIOL]")
108.2
>>> number("C[C@]12CCC(=O)C=C1CC[C@@H]1[C@@H]2CC[C@@]2(C)[C@H]1CC[C@]2(C)O [METHYLTESTOSTERONE]")
94.3
>>> number("Oc1ncnc2[nH]ncc12 [ALLOPURINOL]")
163
>>> number("Nc1nc(N)c2nc(-c3ccccc3)c(N)nc2n1")
87
>>> number("C[C@](N)(Cc1ccc(O)c(O)c1)C(=O)O [METHYLDOPA]")
74.6
>>> number("CC(=O)Oc1cc(C(C)C)c(OCCN(C)C)cc1C [MOXISYLYTE]")
119.2
>>> number("CC(=N)S [THIOACETAMIDE]")
194
>>> number("CCC(C)(C)C(=O)O[C@H]1C[C@@H](C)C=C2C=C[C@H](C)[C@H](CC[C@@H]3C[C@@H](O)CC(=O)O3)[C@H]21 [SIMVASTATIN]")
132.7

---

Species: Rattus norvegicus
Assay: Open TG-GATES - Regimen: Single
Format: toxicity, organism-based, Sprague-Dawley
Design: regimen Single, gender Male, age 6 weeks
Conditions: in vivo, po, 0 mg/kg, 6 h, tissue Liver, route gavage, dose level Control
Reported endpoint: LIVER (g)

>>> number("Nc1nc(N)c2nc(-c3ccccc3)c(N)nc2n1")
9.6
>>> number("O=C(N[C@H](CO)[C@H](O)c1ccc([N+](=O)[O-])cc1)C(Cl)Cl [CHLORAMPHENICOL]")
9.4
>>> number("CCN1CCCC1CNC(=O)c1cc(S(N)(=O)=O)ccc1OC (stereo not given) [SULPIRIDE]")
8.6
>>> number("CCc1oc2ccccc2c1C(=O)c1cc(I)c(O)c(I)c1 [BENZIODARONE]")
9.5
>>> number("C[C@](N)(Cc1ccc(O)c(O)c1)C(=O)O [METHYLDOPA]")
7.3

---

Species on record: Rattus norvegicus
Test: Open TG-GATES - Regimen: Single
Format: toxicity, organism-based, Sprague-Dawley
Set-up: regimen Single, gender Male, age 6 weeks
Conditions: in vivo, po, 0 mg/kg, 24 h, tissue Kidney, route gavage, dose level Control
Measured KIDNEY_L, listed per entry for reference.
Reported endpoint: KIDNEY_L (g)

>>> number("C[C@](N)(Cc1ccc(O)c(O)c1)C(=O)O")
0.9
>>> number("CCC(C)(C)C(=O)O[C@H]1C[C@@H](C)C=C2C=C[C@H](C)[C@H](CC[C@@H]3C[C@@H](O)CC(=O)O3)[C@H]21")
1
>>> number("C#C[C@]1(O)CC[C@H]2[C@@H]3CCc4cc(O)ccc4[C@H]3CC[C@@]21C")
0.9

---

Organism: Rattus norvegicus
Experiment: Open TG-GATES - Regimen: Daily Repeat
Type: toxicity, organism-based, Sprague-Dawley
Parameters: regimen Daily Repeat, gender Male, age 6 weeks
Conditions: in vivo, po, 0 mg/kg, […], tissue Plasma, route gavage, dose level Control, time 14 day
The following compounds are listed with their measured TG values.
Reported endpoint: TG

>>> result("CN1C(=O)OC(C)(C)C1=O")
"128.8 mg/dL"
>>> result("C[C@]12CCC(=O)C=C1CC[C@@H]1[C@@H]2CC[C@@]2(C)[C@H]1CC[C@]2(C)O")
"127 mg/dL"
>>> result("C#C[C@]1(O)CC[C@H]2[C@@H]3CCc4cc(O)ccc4[C@H]3CC[C@@]21C")
"104.4 mg/dL"

---

Species on record: Rattus norvegicus
Assay: Open TG-GATES - Regimen: Daily Repeat
Assay type: toxicity, organism-based, Sprague-Dawley
Set-up: regimen Daily Repeat, gender Male, age 6 weeks
Conditions: in vivo, po, 0 mg/kg, […], tissue Plasma, route gavage, dose level Control, time 7 day
The reader will find reported LDH values listed item by item below.
Reported endpoint: LDH (IU/L)

>>> number("Oc1ncnc2[nH]ncc12")
86.2
>>> number("C[C@]12CCC(=O)C=C1CC[C@@H]1[C@@H]2CC[C@@]2(C)[C@H]1CC[C@]2(C)O")
68.4
>>> number("C[C@](N)(Cc1ccc(O)c(O)c1)C(=O)O")
57.4
>>> number("O=C(O)c1cccnc1")
155.6
>>> number("CC(C)(S)[C@@H](N)C(=O)O")
71.6
>>> number("Nc1nc(N)c2nc(-c3ccccc3)c(N)nc2n1")
63.4
>>> number("CCN1CCCC1CNC(=O)c1cc(S(N)(=O)=O)ccc1OC (stereo unspecified) [SULPIRIDE]")
64.4
>>> number("CC(=O)Oc1cc(C(C)C)c(OCCN(C)C)cc1C")
219.2
>>> number("CC(=N)S [THIOACETAMIDE]")
79
>>> number("CCC(C)(C)C(=O)O[C@H]1C[C@@H](C)C=C2C=C[C@H](C)[C@H](CC[C@@H]3C[C@@H](O)CC(=O)O3)[C@H]21")
81.6
>>> number("CCc1oc2ccccc2c1C(=O)c1cc(I)c(O)c(I)c1")
86

---

Organism: Rattus norvegicus
Experiment: Open TG-GATES - Regimen: Single
Type: toxicity, organism-based, Sprague-Dawley
Design: regimen Single, gender Male, age 6 weeks
Details: in vivo, po, 0 mg/kg, 9 h, tissue Plasma, route gavage, dose level Control
Reported endpoint: Cl (meq/L)

>>> number("Nc1nc(N)c2nc(-c3ccccc3)c(N)nc2n1")
106
>>> number("CC(=N)S [THIOACETAMIDE]")
104.6
>>> number("C#C[C@]1(O)CC[C@H]2[C@@H]3CCc4cc(O)ccc4[C@H]3CC[C@@]21C")
107.8
>>> number("CCN1CCCC1CNC(=O)c1cc(S(N)(=O)=O)ccc1OC (configuration not stated) [SULPIRIDE]")
105.4
>>> number("C[C@](N)(Cc1ccc(O)c(O)c1)C(=O)O")
108.2
>>> number("CC(C)(S)[C@@H](N)C(=O)O")
106.4
>>> number("CC(=O)Oc1cc(C(C)C)c(OCCN(C)C)cc1C")
106.6

---

Species on record: Rattus norvegicus
Assay: Open TG-GATES - Regimen: Daily Repeat
Type: toxicity, organism-based, Sprague-Dawley
Set-up: regimen Daily Repeat, gender Male, age 6 weeks
Conditions: in vivo, po, 0 mg/kg, […], tissue Plasma, route gavage, dose level Control, time 14 day
Reported endpoint: IP (mg/dL)

>>> number("CC(C)C(=O)Nc1ccc([N+](=O)[O-])c(C(F)(F)F)c1 [FLUTAMIDE]")
6.8
>>> number("CCC(C)(C)C(=O)O[C@H]1C[C@@H](C)C=C2C=C[C@H](C)[C@H](CC[C@@H]3C[C@@H](O)CC(=O)O3)[C@H]21 [SIMVASTATIN]")
7
>>> number("CC(=N)S [THIOACETAMIDE]")
7.1
>>> number("C[C@]12CCC(=O)C=C1CC[C@@H]1[C@@H]2CC[C@@]2(C)[C@H]1CC[C@]2(C)O [METHYLTESTOSTERONE]")
7
